Cited source for all entries: the supplement of paper PMC12636033

# Test system: muMax20 (Max(13-93) K31hArg/K57hArg, M65Nle)
# assay_overview: PBM 8-mer E-score (E-score (rank enrichment, -0.5 to 0.5)); higher = stronger preferential binding
In all, about 33,000 sequences were measured (“E-score (rank enrichment, -0.5 to 0.5)”: median about -0.0068, highest 2% from about 0.24 on). This excerpt belongs to a sample that is enriched for the highest values.
Given measured PBM 8-mer E-score, output Criterion met if it is greater than or equal to 0.08 and Criterion not met if not.

Consider the worked cases shown below.
Query: hey, is PBM 8-mer E-score for this one >= 0.08? ATCCTCAT
Result: Criterion not met

Query: Next: CCTTGCGC
Result: Criterion not met

Query: Next: GGAGAAGA
Result: Criterion met

Query: Next: AATGCTGA
Result: Criterion met

Query: Next: GTTTTACA
Result: Criterion met

Query: Next: CACGCGTC
Result: Criterion met

Further cases:
Query: hey, is PBM 8-mer E-score for this one >= 0.08? CACGCGTG
Result: Criterion met

Query: Next: AGCTCCCC
Result: Criterion not met

Query: Next: CATGCTGA
Result: Criterion met

Query: Next: GACGCGTA
Result: Criterion not met

Query: Next: AACCATTA
Result: Criterion met
